meta.source: the supplement of paper PMC10567573

B1: CDKN1A (parent)
chain: RRQTSMTDFYHSKRRLIFSKRKP

Variants of: B1
Assay: protein stability index of a GFP-peptide fusion (GPS, HEK-293T) (PSI 1-6); higher = more stable;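 further: lentivirally expressed fusions sorted by FACS into six bins by GFP to DsRed ratio, PSI derived from sequencing read proportions per bin multiplied by bin number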
Conditions: c terminus: native
Label met when protein stability index >= 3; otherwise not met.

{"variant.id": "S19Y", "label.class": "not met"}
{"variant.id": "F9K", "label.class": "not met"}
{"variant.id": "L16Y", "label.class": "not met"}
{"variant.id": "S19R", "label.class": "not met"}
{"variant.id": "Y10T", "label.class": "met"}
{"variant.id": "S12V", "label.class": "not met"}
{"variant.id": "M6D", "label.class": "not met"}
{"variant.id": "R15P", "label.class": "not met"}
{"variant.id": "F18E", "label.class": "met"}
{"variant.id": "P23G", "label.class": "not met"}
{"variant.id": "K13Q", "label.class": "not met"}
{"variant.id": "T4K", "label.class": "not met"}
{"variant.id": "T7S", "label.class": "not met"}
{"variant.id": "T4P", "label.class": "not met"}
{"variant.id": "K13V", "label.class": "not met"}
{"variant.id": "P23V", "label.class": "not met"}
{"variant.id": "R21K", "label.class": "met"}
{"variant.id": "K20P", "label.class": "not met"}
{"variant.id": "R14L", "label.class": "met"}
{"variant.id": "S5L", "label.class": "not met"}
{"variant.id": "R21M", "label.class": "met"}
